- tested_on: human MetAP2 enzyme (Homo sapiens, UniProt P50579)
- Sequence (P50579 whole entry): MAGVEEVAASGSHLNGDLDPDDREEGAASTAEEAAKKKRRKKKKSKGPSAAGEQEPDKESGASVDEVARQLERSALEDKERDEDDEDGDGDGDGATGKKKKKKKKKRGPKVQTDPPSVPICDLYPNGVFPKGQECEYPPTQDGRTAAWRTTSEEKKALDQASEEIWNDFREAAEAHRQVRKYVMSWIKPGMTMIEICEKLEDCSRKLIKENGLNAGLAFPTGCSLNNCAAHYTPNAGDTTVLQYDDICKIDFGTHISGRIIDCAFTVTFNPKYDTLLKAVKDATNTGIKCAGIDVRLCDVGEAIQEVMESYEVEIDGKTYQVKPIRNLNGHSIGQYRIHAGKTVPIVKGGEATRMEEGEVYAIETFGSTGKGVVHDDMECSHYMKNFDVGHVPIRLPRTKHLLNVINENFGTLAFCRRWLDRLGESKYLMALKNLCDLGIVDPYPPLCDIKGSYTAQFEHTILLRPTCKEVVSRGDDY
- assay_summary: MetAP2 enzyme assay, MetAP2 enzyme complexed with manganese ions
- test_conditions: MetAP2 Mn pIC50, 10 μM MnCl2; -log(IC50), IC50 molar
endpoint_label: log10 IC50 (log10 of the value in nM)

compound_structure_string | log10 IC50
Cc1nc(N2CCNC(=O)C2)ncc1-n1c2ccc(F)cc2c2[nH]ncc21 | 1.00
Cn1nc(C(N)=O)cc1-n1c2ccc(F)cc2c2[nH]ncc21 | 1.10
Fc1ccc2c(c1)c1[nH]ncc1n2Cc1ccccc1 | 1.50
Cc1c(-n2c3ccc(F)cc3c3[nH]ncc32)ccc2nn(C)cc12 | 0.80
Cc1nc2[nH]cnc2cc1-n1c2cc(F)c(F)cc2c2[nH]ncc21 | 1.10
Cc1cc(C(=O)N2CC(O)C2)ncc1-n1c2ccc(F)cc2c2[nH]ncc21 | 0.90
Cc1cc2c(cc1F)c1[nH]ncc1n2-c1cc2[nH]cnc2nc1C | 0.90
Cc1cc2cn[nH]c2cc1-n1c2ccc(F)cc2c2[nH]ncc21 | 0.90
Cc1nc(N[C@@H](C)CO)ncc1-n1c2ccc(F)cc2c2[nH]ncc21 | 1.10
Cn1nc(C(=O)NCCO)cc1-n1c2ccc(F)cc2c2[nH]ncc21 | 1.00
Cc1nc(C(=O)NCC(N)=O)ccc1-n1c2ccc(F)cc2c2[nH]ncc21 | 1.10
Cc1nc(C(=O)NC2(CO)CC2)ccc1-n1c2ccc(F)cc2c2[nH]ncc21 | 1.10
Cc1cccc(-n2c3ccc(F)cc3c3[nH]ncc32)n1 | 0.80
Cc1nc(N2CC[C@H](F)C2)ncc1-n1c2ccc(F)cc2c2[nH]ncc21 | 1.90
Cc1cc2[nH]ncc2cc1-n1c2ccc(F)cc2c2[nH]ncc21 | 1.10
Cc1nc(N2CC[C@@H](O)C2)ccc1-n1c2ccc(F)cc2c2[nH]ncc21 | 0.80
COCCn1cnc2cc(-n3c4ccc(F)cc4c4[nH]ncc43)c(C)nc21 | 1.00
Cc1nc(N2CCO[C@H](CO)C2)ncc1-n1c2ccc(F)cc2c2[nH]ncc21 | 0.90

---

- tested_on: human MetAP2 enzyme (Homo sapiens, UniProt P50579)
- assay_summary: MetAP2 enzyme assay, MetAP2 enzyme complexed with manganese ions
- test_conditions: MetAP2 Mn pIC50, 10 μM MnCl2; -log(IC50), IC50 molar
Let's look at some compounds and their measured IC50.
endpoint_label: IC50 (µM)

compound | measure_unit | value
Cc1nc(N2CC[C@H](O)C2)ncc1-n1c2ccc(F)cc2c2[nH]ncc21 [Example 55] | µM | 0.0158
Cc1cc(C(=O)NC2(CO)CC2)ncc1-n1c2ccc(F)cc2c2[nH]ncc21 [Example 104] | µM | 0.0126
Cc1cc2cn(C)nc2cc1-n1c2ccc(F)cc2c2[nH]ncc21 [Example 16] | µM | 0.00631
Cc1cc(C(=O)NCCCO)ncc1-n1c2ccc(F)cc2c2[nH]ncc21 [Example 115] | µM | 0.01
Cc1nc(N2CCC[C@H]2C(N)=O)ncc1-n1c2ccc(F)cc2c2[nH]ncc21 [Example 72] | µM | 0.00316
Cc1c(-n2c3ccc(F)cc3c3[nH]ncc32)ccc2ncnn12 [Example 70] | µM | 0.01
Cc1nc(C(=O)N(C)CC#N)ccc1-n1c2ccc(F)cc2c2[nH]ncc21 [Example 121] | µM | 0.0158
Cc1cc2nn(C)cc2cc1-n1c2ccc(F)cc2c2[nH]ncc21 [Example 15] | µM | 0.01
Cc1nc(C(=O)NC[C@H](C)O)ccc1-n1c2ccc(F)cc2c2[nH]ncc21 [Example 126] | µM | 0.01

---

- tested_on: UniProtKB P50579
- assay_summary: MetAP2 enzyme assay, MetAP2 enzyme complexed with manganese ions
- test_conditions: MetAP2 Mn pIC50, 10 μM MnCl2; -log(IC50), IC50 molar
pIC50: −log10 of the molar value.
endpoint_label: pIC50

compound_structure_string | tested_on | endpoint_label | value
Cc1nc(N2CC[C@H](C(=O)NCCO)C2)ncc1-n1c2ccc(F)cc2c2[nH]ncc21 | UniProtKB P50579 | pIC50 | 8.00
Cc1nc(N2CCOCC2)ccc1-n1c2ccc(F)cc2c2[nH]ncc21 | UniProtKB P50579 | pIC50 | 8.50
Cn1nccc1-n1c2ccc(F)cc2c2[nH]ncc21 | UniProtKB P50579 | pIC50 | 7.70
Cc1nc2[nH]cnc2cc1-n1c2cc(Cl)c(F)cc2c2[nH]ncc21 | UniProtKB P50579 | pIC50 | 7.30
Cc1cc(C(N)=O)ncc1-n1c2ccc(F)cc2c2[nH]ncc21 | UniProtKB P50579 | pIC50 | 7.90
Cc1nc(N)ncc1-n1c2ccc(F)cc2c2[nH]ncc21 | UniProtKB P50579 | pIC50 | 7.90
Cc1nc(N2CCC[C@@H]2C(N)=O)ncc1-n1c2ccc(F)cc2c2[nH]ncc21 | UniProtKB P50579 | pIC50 | 8.50
Cc1nc(N2CCN(C)CC2)ncc1-n1c2ccc(F)cc2c2[nH]ncc21 | UniProtKB P50579 | pIC50 | 8.00
Cc1nc(CCS(C)(=O)=O)ccc1-n1c2ccc(F)cc2c2[nH]ncc21 | UniProtKB P50579 | pIC50 | 8.20
Cc1nc(N)ccc1-n1c2ccc(F)cc2c2[nH]ncc21 | UniProtKB P50579 | pIC50 | 7.80
Cc1cc(C(=O)N(C)C)ncc1-n1c2ccc(F)cc2c2[nH]ncc21 | UniProtKB P50579 | pIC50 | 7.60
Cc1nc(N2CCO[C@@H](CO)C2)ncc1-n1c2ccc(F)cc2c2[nH]ncc21 | UniProtKB P50579 | pIC50 | 8.00
Cc1nc(NC[C@@H](O)CO)ncc1-n1c2ccc(F)cc2c2[nH]ncc21 | UniProtKB P50579 | pIC50 | 7.90
Cc1nc(C(=O)NCCC#N)ccc1-n1c2ccc(F)cc2c2[nH]ncc21 | UniProtKB P50579 | pIC50 | 8.10
Cc1nc(N2CCN(C)C(=O)C2)ncc1-n1c2ccc(F)cc2c2[nH]ncc21 | UniProtKB P50579 | pIC50 | 8.10
Cc1nc(N2CCC(C#N)CC2)ncc1-n1c2ccc(F)cc2c2[nH]ncc21 | UniProtKB P50579 | pIC50 | 8.10
Cc1nc(N2CCC[C@H](O)C2)ncc1-n1c2ccc(F)cc2c2[nH]ncc21 | UniProtKB P50579 | pIC50 | 8.20
Cc1nc(N[C@H](C)CO)ncc1-n1c2ccc(F)cc2c2[nH]ncc21 | UniProtKB P50579 | pIC50 | 8.30

---

- tested_on: UniProt:P50579
- assay_summary: MetAP2 enzyme assay, MetAP2 enzyme complexed with cobalt ions
- test_conditions: MetAP2 Co pIC50, 10 μM CoCl2; -log(IC50), IC50 molar

compound | IC50 / nM
Cc1cc(C(N)=O)ncc1-n1c2ccc(F)cc2c2[nH]ncc21 [Example 107] | 20
CCn1nc(C)c(-n2c3ccc(F)cc3c3[nH]ncc32)c1C [Example 23] | 10
CN1CCN(C(=O)c2ccc(Cn3c4ccc(F)cc4c4[nH]ncc43)cc2)CC1 [Example 53] | 50.1
Cc1nc(N2CCC(C#N)CC2)ncc1-n1c2ccc(F)cc2c2[nH]ncc21 [Example 56] | 12.6
Cc1c(-n2c3ccc(F)cc3c3[nH]ncc32)ccc2c1cnn2C [Example 17] | 7.94

---

- tested_on: UniProt P50579
- assay_summary: MetAP2 enzyme assay, MetAP2 enzyme complexed with cobalt ions
- test_conditions: MetAP2 Co pIC50, 10 μM CoCl2; -log(IC50), IC50 molar
pIC50: −log10 of the molar value.
Let's look at some molecules and their measured pIC50.
endpoint_label: pIC50

compound_structure_string | endpoint_label | value
Cc1nc(N2CC[C@@H](O)C2)ncc1-n1c2ccc(F)cc2c2[nH]ncc21 | pIC50 | 7.80
Cc1nc2c(cc1-n1c3ccc(F)cc3c3[nH]ncc31)ncn2C[C@@H](O)CO | pIC50 | 7.80
Cc1c(-n2c3ccc(F)cc3c3[nH]ncc32)ccc2nn(C)cc12 | pIC50 | 8.00
Cc1nc(C(=O)N2CC(N)C2)ccc1-n1c2ccc(F)cc2c2[nH]ncc21 | pIC50 | 7.70
Cn1cc(-n2c3ccc(F)cc3c3[nH]ncc32)c(CO)n1 | pIC50 | 8.00
Cc1cc2cn(C)nc2cc1-n1c2ccc(F)cc2c2[nH]ncc21 | pIC50 | 8.10
COCCn1cnc2cc(-n3c4ccc(F)cc4c4[nH]ncc43)c(C)nc21 | pIC50 | 8.10
CN1CCN(c2cc(-n3c4ccc(F)cc4c4[nH]ncc43)ccn2)CC1 | pIC50 | 7.60
CNc1cc(C)c(-n2c3ccc(F)cc3c3[nH]ncc32)cn1 | pIC50 | 8.20
